Every entry's value here was drawn from patent US4476129A.

test system: stereotyped behaviour in female Wistar rats; assay: Stereotypy in the rat (stereotyped behaviour); format: in vivo; details: Rattus norvegicus, po, 50% of the maximal effect, observed 15-300 minutes after administration
Exercise: state measured ED50 for each of the molecules provided.
Answers are plain numbers, in mg/kg.

For every listed record, write down its ED50.
1. COC(CCN1CCN(CCOC(c2ccc(F)cc2)c2ccc(F)cc2)CC1)c1ccccc1.Cl.Cl (stereo not drawn) [Compound 16]
2. c1cnc(N2CCN(Cc3ccc4c(c3)OCO4)CC2)nc1 [piribedil, reference compound]

Output:
4.6
99.5

* * *

target: dopamine receptors; assay: Affinity to dopamine receptors (receptor binding); conditions: membrane fraction of corpus striatum of the rat, radioactive labelled dopamine as ligand
reported_property: IC50
Field note: include the unit after the figure.

{"columns": ["compound", "IC50"],
 "data": [
  ["Cl.Cl.O=C(Cc1ccccc1)CN1CCN(CCOC(c2ccc(F)cc2)c2ccc(F)cc2)CC1 [Compound 13, dihydrochloride]", "76 nM"]
]}

For every listed record, write down its IC50.
1. OC(CCN1CCN(CCOC(c2ccc(F)cc2)c2ccc(F)cc2)CC1)c1ccc(F)cc1 (centres unmarked)
2. OC(Cc1ccccc1)CN1CCN(CCOC(c2ccc(F)cc2)c2ccc(F)cc2)CC1 (centres unmarked)
3. OC(CN1CCN(CCOC(c2ccc(F)cc2)c2ccc(F)cc2)CC1)c1ccccc1 (centres unmarked)
4. COC(CCN1CCN(CCOC(c2ccc(F)cc2)c2ccc(F)cc2)CC1)c1ccccc1.Cl.Cl (centres unmarked) [Compound 16, dihydrochloride]
5. OC(CCCN1CCN(CCOC(c2ccc(F)cc2)c2ccc(F)cc2)CC1)c1ccccc1 (centres unmarked)

Output:
["8.7 nM", "30.5 nM", "46.7 nM", "50 nM", "4 nM"]

For every listed record, write down its IC50.
1. CNC(=O)OC(CCN1CCN(CCOC(c2ccc(F)cc2)c2ccc(F)cc2)CC1)c1ccccc1 (centres unmarked)
2. O=C(CN1CCN(CCOC(c2ccc(F)cc2)c2ccc(F)cc2)CC1)c1ccccc1

Output:
1. 27.2 nM
2. 55 nM

* * *

tested on: stereotyped behaviour in female Wistar rats; test: Stereotypy in the rat (stereotyped behaviour); format: in vivo; conditions: Rattus norvegicus, po, 50% of the maximal effect, observed 15-300 minutes after administration
reported_property: log10(ED50) (log10 of the value in mg/kg)
Please interpret these as log10 of ED50 where ED50 is in mg/kg.

{"columns": ["compound", "target_desc", "reported_property", "recorded_result"],
 "data": [
  ["CC(O)(CCN1CCN(CCOC(c2ccc(F)cc2)c2ccc(F)cc2)CC1)c1ccc(F)cc1 (stereo not drawn) [Compound 6]", "stereotyped behaviour in female Wistar rats", "log10(ED50)", 1.06]
]}

For every listed record, write down its log10(ED50).
1. Cl.Cl.O=C(CCCN1CCN(CCOC(c2ccc(F)cc2)c2ccc(F)cc2)CC1)c1ccccc1 [Compound 14]
2. CCNC(=O)OC(CCN1CCN(CCOC(c2ccc(F)cc2)c2ccc(F)cc2)CC1)c1ccccc1 (stereo not drawn) [Compound 18]
3. Cl.Cl.O=C(Cc1ccccc1)CN1CCN(CCOC(c2ccc(F)cc2)c2ccc(F)cc2)CC1 [Compound 13]

Output:
1. 1.26
2. 1.05
3. 0.96

* * *

Exercise: state measured IC50 for each of the compounds provided.
target: dopamine receptors (Rattus norvegicus); construct: membrane fraction of the corpus striatum of the rat; from tissue; host or cells: rat corpus striatum, membrane fraction; assay: Affinity to dopamine receptors (receptor binding); settings: membrane fraction of corpus striatum of the rat, radioactive labelled haloperidol (dopamine antagonist) as ligand; read-out: IC50, receptor binding haloperidol
Sequence (P61169 whole entry): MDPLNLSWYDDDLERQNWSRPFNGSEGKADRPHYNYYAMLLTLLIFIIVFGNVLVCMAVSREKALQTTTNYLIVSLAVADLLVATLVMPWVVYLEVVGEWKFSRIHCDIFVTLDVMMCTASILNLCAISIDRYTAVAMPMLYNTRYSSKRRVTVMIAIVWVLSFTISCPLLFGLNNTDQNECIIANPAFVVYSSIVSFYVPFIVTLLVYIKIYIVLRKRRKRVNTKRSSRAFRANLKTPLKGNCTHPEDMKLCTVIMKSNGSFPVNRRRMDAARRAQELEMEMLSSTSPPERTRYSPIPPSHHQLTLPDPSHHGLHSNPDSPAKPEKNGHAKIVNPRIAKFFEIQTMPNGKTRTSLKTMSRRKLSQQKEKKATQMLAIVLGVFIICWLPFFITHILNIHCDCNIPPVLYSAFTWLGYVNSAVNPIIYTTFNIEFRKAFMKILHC
Answers are plain numbers, in nM.

Example results:
{"columns": ["compound", "reported_property", "unit_text", "recorded_result"],
 "data": [
  ["O=C(Nc1ccccc1)OC(CCN1CCN(CCOC(c2ccc(F)cc2)c2ccc(F)cc2)CC1)c1ccccc1 (centres unmarked)", "IC50", "nM", 302],
  ["CC(O)(CCN1CCN(CCOC(c2ccc(F)cc2)c2ccc(F)cc2)CC1)c1ccc(F)cc1 (centres unmarked)", "IC50", "nM", 277],
  ["O=C(CN1CCN(CCOC(c2ccc(F)cc2)c2ccc(F)cc2)CC1)c1ccccc1", "IC50", "nM", 524],
  ["OC(CCN1CCN(CCOC(c2ccc(F)cc2)c2ccc(F)cc2)CC1)c1ccc(F)cc1 (centres unmarked)", "IC50", "nM", 610],
  ["OC(CCCN1CCN(CCOC(c2ccc(F)cc2)c2ccc(F)cc2)CC1)c1ccccc1 (centres unmarked)", "IC50", "nM", 445],
  ["CCC(O)(CCN1CCN(CCOC(c2ccc(F)cc2)c2ccc(F)cc2)CC1)c1ccccc1 (centres unmarked)", "IC50", "nM", 361],
  ["CCNC(=O)OC(CCN1CCN(CCOC(c2ccc(F)cc2)c2ccc(F)cc2)CC1)c1ccccc1 (centres unmarked)", "IC50", "nM", 216],
  ["O=C(CCN1CCN(CCOC(c2ccc(F)cc2)c2ccc(F)cc2)CC1)c1ccc(F)cc1", "IC50", "nM", 467]
]}

For every listed record, write down its IC50.
1. OC(CN1CCN(CCOC(c2ccc(F)cc2)c2ccc(F)cc2)CC1)c1ccccc1 (centres unmarked)
2. CC(O)(CCN1CCN(CCOC(c2ccc(F)cc2)c2ccc(F)cc2)CC1)c1ccccc1 (centres unmarked)
3. OC(Cc1ccccc1)CN1CCN(CCOC(c2ccc(F)cc2)c2ccc(F)cc2)CC1 (centres unmarked)

Output:
1. 780
2. 283
3. 546

* * *

Exercise: state measured IC50 for each of the compounds provided.
target: dopamine receptors; test: Affinity to dopamine receptors (receptor binding); conditions: membrane fraction of corpus striatum of the rat, radioactive labelled dopamine as ligand
Structures can show the parent of a compound that is named as a salt.
Field note: include the unit after the figure.

Example results:
{"columns": ["compound", "recorded_result"],
 "data": [
  ["CC(O)(CCN1CCN(CCOC(c2ccc(F)cc2)c2ccc(F)cc2)CC1)c1ccc(F)cc1 (stereo not shown) [Compound 6]", "0.0323 µM"],
  ["Cl.Cl.O=C(CCCN1CCN(CCOC(c2ccc(F)cc2)c2ccc(F)cc2)CC1)c1ccccc1 [Compound 14, dihydrochloride]", "0.0155 µM"],
  ["CC(O)(CCN1CCN(CCOC(c2ccc(F)cc2)c2ccc(F)cc2)CC1)c1ccccc1 (stereo not shown) [Compound 5]", "0.0223 µM"]
]}

For every listed record, write down its IC50.
1. O=C(CCN1CCN(CCOC(c2ccc(F)cc2)c2ccc(F)cc2)CC1)c1ccc(F)cc1 [Compound 12]
2. O=C(Nc1ccccc1)OC(CCN1CCN(CCOC(c2ccc(F)cc2)c2ccc(F)cc2)CC1)c1ccccc1 (stereo not shown) [Compound 19]
3. Cl.Cl.OC(CCCN1CCN(CCOC(c2ccc(F)cc2)c2ccc(F)cc2)CC1)c1ccc(F)cc1 (stereo not shown) [Compound 9, dihydrochloride]
4. O=C(CCCN1CCN(CCOC(c2ccc(F)cc2)c2ccc(F)cc2)CC1)c1ccc(F)cc1 [Compound 15, dihydrochloride]

Output:
1. 0.18 µM
2. 0.0434 µM
3. 0.0181 µM
4. 0.291 µM

* * *

target: dopamine receptors (Rattus norvegicus); construct: membrane fraction of the corpus striatum of the rat; from tissue; host or cells: rat corpus striatum, membrane fraction; test: Affinity to dopamine receptors (receptor binding)
Where a name gives a salt, the structure may show the parent alone.
Please note: IC50 exactly at 500 nM is NOT MET. Only values below 500 nM get MET.

Study these solved cases before continuing.
{"columns": ["compound", "answer_label"],
 "data": [
  ["OC(CCN1CCN(CCOC(c2ccc(F)cc2)c2ccc(F)cc2)CC1)c1ccccc1 (centres unmarked)", "MET"],
  ["CNC(=O)OC(CCN1CCN(CCOC(c2ccc(F)cc2)c2ccc(F)cc2)CC1)c1ccccc1 (centres unmarked)", "MET"],
  ["COC(CCN1CCN(CCOC(c2ccc(F)cc2)c2ccc(F)cc2)CC1)c1ccccc1.Cl.Cl (centres unmarked) [Compound 16, dihydrochloride]", "NOT MET"],
  ["O=C(CCN1CCN(CCOC(c2ccc(F)cc2)c2ccc(F)cc2)CC1)c1ccccc1", "MET"],
  ["Cl.Cl.O=C(Cc1ccccc1)CN1CCN(CCOC(c2ccc(F)cc2)c2ccc(F)cc2)CC1 [Compound 13, dihydrochloride]", "NOT MET"]
]}

Task: Input Cl.Cl.O=C(CCCN1CCN(CCOC(c2ccc(F)cc2)c2ccc(F)cc2)CC1)c1ccccc1 [Compound 14, dihydrochloride] ; condition: IC50 strictly below 500 nM. Does it hold?
Output: MET

Task: Input O=C(CCCN1CCN(CCOC(c2ccc(F)cc2)c2ccc(F)cc2)CC1)c1ccc(F)cc1 [Compound 15, dihydrochloride] ; condition: IC50 strictly below 500 nM. Does it hold?
Output: MET

* * *

system: stereotyped behaviour in female Wistar rats; assay: Stereotypy in the rat (stereotyped behaviour); type: in vivo; details: Rattus norvegicus, po, 50% of the maximal effect, observed 15-300 minutes after administration
Exercise: state measured ED50 for each of the molecules provided.
Give bare numbers, in mg/kg.

Example results:
{"columns": ["molecule", "target_desc", "recorded_result"],
 "data": [
  ["CC(O)(CCN1CCN(CCOC(c2ccc(F)cc2)c2ccc(F)cc2)CC1)c1ccccc1 (centres unmarked)", "stereotyped behaviour in female Wistar rats", 14],
  ["OC(CCN1CCN(CCOC(c2ccc(F)cc2)c2ccc(F)cc2)CC1)c1ccc(F)cc1 (centres unmarked)", "stereotyped behaviour in female Wistar rats", 1.7],
  ["CNC(=O)OC(CCN1CCN(CCOC(c2ccc(F)cc2)c2ccc(F)cc2)CC1)c1ccccc1 (centres unmarked)", "stereotyped behaviour in female Wistar rats", 4.3],
  ["O=C(CCN1CCN(CCOC(c2ccc(F)cc2)c2ccc(F)cc2)CC1)c1ccc(F)cc1", "stereotyped behaviour in female Wistar rats", 5.5],
  ["CC(C)C[C@H]1C(=O)N2CCC[C@H]2[C@]2(O)O[C@](NC(=O)[C@@H]3C=C4c5cccc6[nH]c(Br)c(c56)C[C@H]4N(C)C3)(C(C)C)C(=O)N12 [bromocriptine, reference compound]", "stereotyped behaviour in female Wistar rats", 25.3],
  ["OC(CN1CCN(CCOC(c2ccc(F)cc2)c2ccc(F)cc2)CC1)c1ccccc1 (centres unmarked)", "stereotyped behaviour in female Wistar rats", 17.5]
]}

For every listed record, write down its ED50.
1. CCC(O)(CCN1CCN(CCOC(c2ccc(F)cc2)c2ccc(F)cc2)CC1)c1ccccc1 (centres unmarked)
2. OC(CCCN1CCN(CCOC(c2ccc(F)cc2)c2ccc(F)cc2)CC1)c1ccccc1 (centres unmarked)

Output:
26
6.2
